# EXPERIMENTAL SYSTEM: recombinant Aurora A (Homo sapiens, UniProt O14965)
# Sequence (O14965 whole entry): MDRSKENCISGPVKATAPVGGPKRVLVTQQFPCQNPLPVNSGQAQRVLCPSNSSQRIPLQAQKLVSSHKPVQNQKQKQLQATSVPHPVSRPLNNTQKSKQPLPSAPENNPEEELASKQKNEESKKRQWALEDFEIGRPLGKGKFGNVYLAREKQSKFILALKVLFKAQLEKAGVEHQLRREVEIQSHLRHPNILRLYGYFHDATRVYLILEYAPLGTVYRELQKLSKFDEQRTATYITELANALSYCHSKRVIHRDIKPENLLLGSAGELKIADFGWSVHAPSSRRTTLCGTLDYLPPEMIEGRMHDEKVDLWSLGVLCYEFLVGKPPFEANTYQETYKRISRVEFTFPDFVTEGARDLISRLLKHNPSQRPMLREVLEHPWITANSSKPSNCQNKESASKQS
# TEST: PanVera Z'-Lyte Aurora kinase assay
# STATED CONDITIONS: Z'-Lyte Ser/Thr 1 peptide 2 μM, ATP 10 μM, 1 h
pIC50: −log10 of the molar value.
RECORDED ENDPOINT: pIC50

Query: For Cc1cc(Nc2nc(Sc3ccc(NC(=O)C4CC4)cc3)nc(C(=O)OC3CCCCC3)c2N)n[nH]1 [Compound 42] , what is its reported pIC50?
Response: > 7.00

Query: For CNC(=O)c1nc(Sc2ccc(NC(=O)C3CC3)cc2)nc(Nc2cc(C)[nH]n2)c1N [Compound 9] , what is its reported pIC50?
Response: > 7.00

Query: For Cc1cc(Nc2nc(Sc3ccc(NC(=O)C4CC4)cc3)nc(C(=O)OCCN3CCOCC3)c2N)n[nH]1 [Compound 18] , what is its reported pIC50?
Response: > 7.00

Query: For Cc1cc(Nc2nc(Sc3ccc(NC(=O)C4CC4)cc3)nc(C(=O)N3CCCCC3)c2N)n[nH]1 [Compound 53] , what is its reported pIC50?
Response: > 7.00

Query: For Cc1cc(Nc2nc(Sc3ccc(NC(=O)C4CC4)cc3)nc(C(=O)O)c2N)n[nH]1 [Compound 8] , what is its reported pIC50?
Response: > 7.00

Query: For CSCCNC(=O)c1nc(Sc2ccc(NC(=O)C3CC3)cc2)nc(Nc2cc(C)[nH]n2)c1N [Compound 56] , what is its reported pIC50?
Response: > 7.00

Query: For Cc1cc(Nc2nc(Sc3ccc(NC(=O)C4CC4)cc3)nc(C(=O)OCCO)c2N)n[nH]1 [Compound 50] , what is its reported pIC50?
Response: > 7.00

Every entry's value here was drawn from patent US8153630B2.
